test: Maximum (unbound) drug concentration in human plasma; assay type: in vivo; settings: fu multiplied by reported Cmax
Measured fuCmax (maximum unbound concentration in human plasma) of individual entries
assay readout: fuCmax (maximum unbound concentration in human plasma) (µM)

| compound | value observed |
| --- | --- |
| CCCCc1nc(Cl)c(CO)n1Cc1ccc(-c2ccccc2-c2nn[nH]n2)cc1 [Losartan, losartan] | 0.028 |
| CC(C)OC(=O)C(C)(C)Oc1ccc(C(=O)c2ccc(Cl)cc2)cc1 [Fenofibrate, fenofibrate] | 0.25 |
| CCc1oc2ccccc2c1C(=O)c1cc(Br)c(O)c(Br)c1 [Benzbromarone, benzbromarone] | 0.2 |
| Cc1nc(-c2ccc(OCC(C)C)c(C#N)c2)sc1C(=O)O [Febuxostat, febuxostat] | 0.09 |

# credit: paper PMC5187494
